Data credit: patent US20140228277A1

Reported Caliper (MCE) BACE1 activity assay IC50 is given for each of the following binders.
# assayTarget: recombinant human BACE1 (rhBACE1) (human, UniProt P56817 22-457, limits assumed)
# Sequence (P56817 22-457 limits assumed): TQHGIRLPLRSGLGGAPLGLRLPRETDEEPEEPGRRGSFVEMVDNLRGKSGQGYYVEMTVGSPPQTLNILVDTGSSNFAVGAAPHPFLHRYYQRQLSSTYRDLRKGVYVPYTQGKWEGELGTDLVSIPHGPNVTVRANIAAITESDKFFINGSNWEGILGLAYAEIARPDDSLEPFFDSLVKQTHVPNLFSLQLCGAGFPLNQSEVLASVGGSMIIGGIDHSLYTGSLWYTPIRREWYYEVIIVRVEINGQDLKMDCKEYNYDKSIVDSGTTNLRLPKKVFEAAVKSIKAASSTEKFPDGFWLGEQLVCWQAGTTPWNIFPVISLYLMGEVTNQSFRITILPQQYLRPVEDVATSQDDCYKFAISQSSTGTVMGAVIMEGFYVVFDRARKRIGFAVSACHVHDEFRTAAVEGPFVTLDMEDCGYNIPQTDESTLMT
# protocol: cell-based or functional assay
Positions of bridges follow the written chain, without caps; N, C: chain ends.
Entry rule: numbers only, all in nM.

# binder, measurementUnits, Caliper (MCE) BACE1 activity assay IC50
records = [
    ("Ac-NEESMYCRLLGIGCG-NH2 (disulfide 7-14; SMILES CC[C@H](C)[C@@H]1NC(=O)CNC(=O)[C@H](CC(C)C)NC(=O)[C@H](CC(C)C)NC(=O)[C@H](CCCNC(=N)N)NC(=O)[C@@H](NC(=O)[C@H](Cc2ccc(O)cc2)NC(=O)[C@H](CCSC)NC(=O)[C@H](CO)NC(=O)[C@H](CCC(=O)O)NC(=O)[C@H](CCC(=O)O)NC(=O)[C@H](CC(N)=O)NC(C)=O)CSSC[C@@H](C(=O)NCC(N)=O)NC(=O)CNC1=O, also called BACE20; BACE-20) [BACE020]", "nM", 11),
    ("Ac-KEESIYCRLMGLGCG-NH2 (disulfide 7-14 (inferred), also called BACE-18) [BACE018]", "nM", 54),
]

Now consider the entry below.
Given the binder Ac-NEESMYCRLLGIACG-NH2 (disulfide 7-14 (inferred), also called BACE020 Gly13 to Ala) [BACE053] , what is its reported Caliper (MCE) BACE1 activity assay IC50? 7
